- System: SK-BR-3
- Protocol Notes: normalised response (% of control), CellTiter-Glo; higher = more viable cells (100 = DMSO, 0 = benzethonium chloride kill control)
- Condition Info: incubation time: 72 h
The entries below come with measured normalised response values attached.
Answers without a unit are incomplete; give the number and then its unit.

Compound	Readout Value
C[C@]12C=CC(=O)C=C1CC[C@@H]1[C@@H]2[C@@H](O)C[C@@]2(C)[C@H]1CC[C@]2(O)C(=O)CO [Prednisolone] (10 nM)	112%
CCCCC/C=C/C=C1/C(=O)C=C[C@@H]1C/C=C\CCCC(=O)O [15D-PGJ2] (80 nM)	103%
CS(=O)(=O)N1CCN(Cc2cc3nc(-c4cccc5[nH]ncc45)nc(N4CCOCC4)c3s2)CC1 [Pictilisib] (1 nM)	107%
Nc1cccc2c1CN(C1CCC(=O)NC1=O)C2=O (stereo not given) [Lenalidomide] (1000 nM)	101%
Cc1ccc(Nc2nccc(N(C)c3ccc4c(C)n(C)nc4c3)n2)cc1S(N)(=O)=O [Pazopanib] (1000 nM)	102%

Let's switch to this compound now.
Hello, I am looking for reported normalised response with SK-BR-3 for Nc1ccccc1NC(=O)c1ccc(CNc2nccc(-c3cccnc3)n2)cc1 [Mocetinostat] (1 nM) . Could you help?
103%
